inhibition at 5 min, 10 µM values for the molecules below.
molecular target: CYP3A4 (Homo sapiens, UniProt P08684); construct: tissue BD-Gentest 452117; host or cells: human liver microsomes; assay: CYP inhibition assay in human liver microsome, CYP3A4; type: in vitro ADME; conditions: human, human liver microsomes, probe midazolam 5 μM, substrate midazolam 5 μM, third value of 2C9/2D6/3A4
Sequence (P08684 whole entry): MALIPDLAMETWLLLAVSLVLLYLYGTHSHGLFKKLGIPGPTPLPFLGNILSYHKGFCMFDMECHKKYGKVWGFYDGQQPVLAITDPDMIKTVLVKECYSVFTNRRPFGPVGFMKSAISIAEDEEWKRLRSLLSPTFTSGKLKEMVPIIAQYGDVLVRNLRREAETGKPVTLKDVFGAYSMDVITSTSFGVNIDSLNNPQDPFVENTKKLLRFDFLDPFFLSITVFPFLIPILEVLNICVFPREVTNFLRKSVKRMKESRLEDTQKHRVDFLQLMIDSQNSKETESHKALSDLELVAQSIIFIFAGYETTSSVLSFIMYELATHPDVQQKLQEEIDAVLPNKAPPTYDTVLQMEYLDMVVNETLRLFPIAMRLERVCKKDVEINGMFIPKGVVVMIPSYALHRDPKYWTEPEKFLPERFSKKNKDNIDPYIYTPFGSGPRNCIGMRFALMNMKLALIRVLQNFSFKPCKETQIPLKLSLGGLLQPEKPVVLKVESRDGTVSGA
# number only, unit % dropped from output

Sample answers from the record:
C[C@@H]1CN(c2ccc(C#N)c3ncccc23)C[C@H](CN2CCN(c3ccncc3)CC2)O1 [ER-888286, reference compound]: 5.5
C[C@@H]1CN(c2ccc(C#N)c3ncccc23)C[C@H](CN2CCN(c3ccnc(N4CCNCC4)n3)CC2)O1: 11.5
C[C@@H]1CN(c2ccc(C#N)c3ncccc23)C[C@H](CN2CCN(c3ccnc(N4CCN(C)CC4)n3)CC2)O1: -16
C[C@@H]1CN(c2ccc(C#N)c3ncccc23)C[C@H](CN2CCN(c3cc(N4CCN(C)CC4)ncn3)CC2)O1: -1.5
C[C@@H]1CN(c2ccc(C#N)c3ncccc23)C[C@H](CN2CC(c3cccc(N4CCNCC4)c3)C2)O1: 0.5

Request the reported inhibition at 5 min, 10 µM associated with CO[C@H]1CN(c2nc(C)cc(N3CCN(C[C@H]4CN(c5ccc(C#N)c6nccnc56)C[C@@H](C)O4)CC3)n2)C[C@@H]1N
20.5

Then what about the molecule [2H]c1ccc2c(N3C[C@H](CN4CCN(c5nc(C)cc(N6C[C@H](OC)[C@@H](N)C6)n5)CC4)O[C@H](C)C3)ccc(C#N)c2n1 ?
47.5

Then what about the molecule Cc1cc(N2CCNCC2)nc(N2CCN(C[C@H]3CN(c4ccc(C#N)c5nccnc45)C[C@@H](C)O3)CC2)n1 ?
16

Then what about the molecule C[C@@H]1CN(c2ccc(C#N)c3ncccc23)C[C@H](CN2CCC(c3cccc(N4CCNCC4)c3)C2)O1 (some centres unmarked) ?
14

Then what about the molecule C[C@@H]1CN(c2ccc(C#N)c3ncccc23)C[C@H](CN2CCN(c3ccnc(N4CCNCC(O)C4)n3)CC2)O1 (some centres unmarked) ?
-4

Then what about the molecule C[C@@H]1CN(c2ccc(C#N)n3nccc23)C[C@H](CN2CC(c3ccc(N4CC(C)(N)C4)cc3)C2)O1 ?
0.5

---

IC20 values for the compounds below.
target: hERG channel (Homo sapiens); construct: expressed in transfected cells; host or cells: CHO (Chinese hamster ovary); assay: hERG channel inhibition assay (patch-clamp, CHOhERG cells); assay type: cell-based; conditions: human, CHO cells stably expressing hERG (CHOhERG); patch-clamp, CHOhERG cells
Sequence (Q12809 whole entry): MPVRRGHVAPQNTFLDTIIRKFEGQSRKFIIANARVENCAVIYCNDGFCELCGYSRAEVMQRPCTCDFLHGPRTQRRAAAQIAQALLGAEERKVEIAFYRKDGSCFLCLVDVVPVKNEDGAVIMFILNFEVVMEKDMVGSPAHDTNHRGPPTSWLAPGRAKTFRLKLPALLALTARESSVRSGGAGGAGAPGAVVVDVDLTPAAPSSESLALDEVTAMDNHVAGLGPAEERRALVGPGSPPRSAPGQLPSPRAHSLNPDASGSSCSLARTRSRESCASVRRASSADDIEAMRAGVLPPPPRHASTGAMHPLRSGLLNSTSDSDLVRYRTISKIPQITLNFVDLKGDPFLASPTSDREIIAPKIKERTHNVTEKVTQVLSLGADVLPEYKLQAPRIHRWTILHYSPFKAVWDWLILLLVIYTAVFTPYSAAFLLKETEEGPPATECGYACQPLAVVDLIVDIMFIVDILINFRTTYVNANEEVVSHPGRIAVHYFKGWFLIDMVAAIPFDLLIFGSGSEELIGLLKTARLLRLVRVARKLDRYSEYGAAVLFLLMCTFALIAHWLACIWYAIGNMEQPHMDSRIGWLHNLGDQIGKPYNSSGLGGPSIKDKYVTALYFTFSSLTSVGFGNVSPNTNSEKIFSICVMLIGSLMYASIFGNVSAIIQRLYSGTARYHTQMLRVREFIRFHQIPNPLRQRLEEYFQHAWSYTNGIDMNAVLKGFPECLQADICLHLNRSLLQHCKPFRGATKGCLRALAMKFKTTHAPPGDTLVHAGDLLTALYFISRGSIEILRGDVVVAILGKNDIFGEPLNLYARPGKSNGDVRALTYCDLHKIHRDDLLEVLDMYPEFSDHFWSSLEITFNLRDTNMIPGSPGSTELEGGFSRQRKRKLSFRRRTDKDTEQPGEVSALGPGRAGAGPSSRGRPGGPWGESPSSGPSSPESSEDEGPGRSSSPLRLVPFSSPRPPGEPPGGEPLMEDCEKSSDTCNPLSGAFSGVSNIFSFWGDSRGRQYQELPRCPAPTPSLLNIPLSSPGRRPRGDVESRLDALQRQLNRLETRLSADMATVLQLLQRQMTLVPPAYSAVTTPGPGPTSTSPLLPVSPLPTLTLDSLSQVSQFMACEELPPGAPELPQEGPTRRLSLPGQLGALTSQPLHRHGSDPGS

Sample answers from the record:
C[C@@H]1CN(c2ccc(C#N)c3nccnc23)C[C@H](CN2CCN(c3nccc(N4CC(N)C4)n3)CC2)O1: > 10 µM
[2H]c1ccc2c(N3C[C@H](CN4CCN(c5nc(C)cc(N6C[C@@H](N)[C@H](OC)C6)n5)CC4)O[C@H](C)C3)ccc(C#N)c2n1: > 10 µM

Request the reported IC20 associated with [2H]c1ccc2c(N3C[C@H](CN4CCN(c5ccc(N6CC(C)(N)C6)nc5)CC4)O[C@H](C)C3)ccc(C#N)c2n1
> 10 µM

Then what about the compound C[C@@H]1CN(c2ccc(C#N)c3ncccc23)C[C@H](CN2CCN(c3ccnc(N4CCNCC4)n3)CC2)O1 ?
> 10 µM

Then what about the compound C[C@@H]1CN(c2ccc(C#N)n3ncc(F)c23)C[C@H](CN2CCN(c3ccc(N4C[C@H]5NCCO[C@@H]5C4)nc3)CC2)O1 ?
8.6 µM

Then what about the compound [2H]c1ccc2c(N3C[C@H](CN4CCN(c5ccc(N6C[C@@H](N)[C@H](OC)C6)nc5)CC4)O[C@H](C)C3)ccc(C#N)c2n1 ?
> 10 µM
